Values compiled from PubChem BioAssay (NCI).

- System: CCRF-CEM leukemia
- measurement-protocol: NCI-60 one-dose screen, 48 h
- study-conditions: 10 µM unless noted
This is part of a sample that, as a whole, favours compounds with a hit. Of some 83,000 tested, about 20% had one in any assay. Calls of active or inactive are those of the source. How the source made its calls: active means growth percent below 10; inactive means the rest.
Outcome codes: active, inactive

{"compound": "Cc1ccc(OC(=O)c2ccc(Cl)cc2)cc1", "group-label": "inactive"}
{"compound": "COc1cc(C=Nc2oc(-c3ccccc3)c(-c3ccccc3)c2C#N)cc(CN2CCCCC2)c1O", "group-label": "inactive"}
{"compound": "CC[C@@H]1O[C@H](O[C@@H](c2cnc[nH]2)[C@H](NC(=O)c2nc([C@H](CC(N)=O)NC[C@@H](N)C(N)=O)nc(N)c2C)C(=O)N[C@H](C)[C@H](O)[C@H](C)C(=O)N[C@@H](C(=O)NCCc2nc(-c3nc(C(=O)NCCCCN=C(N)N)cs3)cs2)[C@@H](C)O)[C@H](O[C@@H]2O[C@H](CO)[C@H](O)[C@H](OC(N)=O)[C@@H]2O)[C@H](C)[C@@H]1C", "group-label": "inactive"}
{"compound": "Cc1cc(C)nc(SC2=C(Nc3cc(Cl)ccc3O)C(=O)N(Cc3ccccc3)C2=O)n1", "group-label": "inactive"}
{"compound": "c1ccc(CCNc2ncnc3[nH]ncc23)cc1", "group-label": "inactive"}
{"compound": "CCc1nc(N)nc(N)c1C#CC(C)c1ccc(-c2ccncc2)cc1Cl (centres undefined)", "group-label": "inactive"}
{"compound": "O=S(=O)(Nc1ccc(Cl)c(F)c1)c1ccc(-c2cnc(C3CC3)o2)cc1", "group-label": "inactive"}
{"compound": "COc1cc(C)c(C2C(C#N)=C(N)Oc3n[nH]c(-c4cccs4)c32)cc1C(C)C (centres undefined)", "group-label": "inactive"}
{"compound": "O=C(O)c1ccc(N=CC(=O)c2ccc(-c3ccccc3)cc2)cc1", "group-label": "active"}
{"compound": "Nc1n[nH]c2cc(F)c([C@@H]3Nc4ccc5[nH]ncc5c4[C@H]4C5CCC(C5)[C@@H]34)cc12 (some centres undefined)", "group-label": "inactive"}
{"compound": "COc1ccc(C(=O)c2sc3nc4c(c(-c5cccnc5)c3c2N)CCCC4)cc1OC", "group-label": "inactive"}
{"compound": "COc1ccc(C2CC(c3ccc4ccccc4c3)=NN2/C=C2\\SC(=S)N(NC(=O)Cc3ccccc3Nc3c(Cl)cccc3Cl)C2=O)cc1 (centres undefined)", "group-label": "active"}
{"compound": "COc1ccc(S(=O)(=O)N2CCCCCC2)cc1NC(=O)c1[nH]c(C)c2c1CCCCC2=O", "group-label": "inactive"}
{"compound": "O=C(N=Nc1c(O)[nH]c2ccccc12)c1cc(-c2ccccc2)on1", "group-label": "inactive"}
{"compound": "COCCNc1ccc2c3c(cccc13)C(=O)N(CCN(C)C)C2=O", "group-label": "active"}
{"compound": "O=C1Nc2cc(-c3ccc(O)cc3)ccc2/C1=C/c1ccc[nH]1", "group-label": "active"}
{"compound": "N#Cc1nnn(-c2ccc(S(N)(=O)=O)cc2)c1NC(=O)CCl", "group-label": "inactive"}
{"compound": "Cc1cc(C)c2nc3nc(C)cc(C)c3c(N)c2c1", "group-label": "inactive"}
{"compound": "O=CNc1ccc2c(c1)Cc1cccc(NC=O)c1-2", "group-label": "inactive"}
{"compound": "Cc1ccc(C(SCC(N)C(=O)O)(c2ccccc2)c2ccc(C)cc2)cc1 (centres undefined)", "group-label": "active"}
{"compound": "Cn1c(=O)[nH]c(=O)c2nc(CCC(=O)NCCC(=O)O)c(=O)[nH]c21", "group-label": "inactive"}
{"compound": "COc1nc2c(c(=O)n1C)CN(Cc1ccccc1)C=N2", "group-label": "inactive"}
{"compound": "CCc1nnc(CNc2ccc(Cl)cc2)o1", "group-label": "inactive"}
{"compound": "COc1ccc(-c2cc(Nc3ccnc(N4CCOCC4)n3)on2)cc1", "group-label": "inactive"}
{"compound": "O=c1c(F)cn(Cc2ccccc2CCl)c(=O)n1Cc1ccccc1CCl", "group-label": "active"}
{"compound": "Cc1cc(C)nc(SC2=C(Nc3cccc(Cl)c3)C(=O)N(Cc3ccccc3)C2=O)n1", "group-label": "inactive"}
{"compound": "NC(CSC(c1ccccc1)(c1ccccc1)c1ccc(Cl)cc1)C(=O)O (centres undefined)", "group-label": "active"}
{"compound": "COc1ccc(C2CC(c3ccc(Cl)cc3)=NN2/C=C2\\SC(=S)N(NC(=O)Cc3ccccc3Nc3c(Cl)cccc3Cl)C2=O)cc1 (centres undefined)", "group-label": "inactive"}
{"compound": "O=C(Cn1cccc(Nc2ccccc2)c1=O)Nc1ccccc1", "group-label": "inactive"}
{"compound": "COc1ccc(Nc2c3c4c(cccc4[nH]c2=O)C(=O)c2ccccc2-3)cc1", "group-label": "active"}
{"compound": "CC1=C(O)C(=O)C(C(C#N)(C#N)C(C#N)C#N)C1 (centres undefined)", "group-label": "inactive"}
{"compound": "Cc1ccc2c(c1)C(=O)/C(=C/c1cccc(OCC(=O)c3ccc(Cl)cc3)c1)CS2", "group-label": "active"}
{"compound": "O=c1ccccc(-c2ccc(Br)cc2)c1O", "group-label": "active"}
{"compound": "O=C(CCl)Oc1ccc(-c2ccccc2)c(Br)c1", "group-label": "inactive"}
{"compound": "CC/C=C\\C[C@H](O)C/C=C1/C(=O)C=C[C@@]1(C)C/C=C\\CCCC(=O)OC", "group-label": "inactive"}
{"compound": "CC[C@]1(O)C[C@@H]2CN(CCc3c([nH]c4ccccc34)[C@@](C(=O)OC)(c3cc4c(cc3OC)N(C)[C@H]3[C@@](O)(C(N)=O)[C@H](O)[C@]5(CC)[C@@H]6C[C@@H]6CN6CC[C@]43[C@@H]65)C2)C1", "group-label": "inactive"}
{"compound": "O=[N+]([O-])c1ccc2c(c1)Cc1cc(F)ccc1-2", "group-label": "inactive"}
{"compound": "N#CN1CCC[C@H]1C(=O)N1CCc2c(-c3[nH]nc4ncccc34)cccc21", "group-label": "inactive"}
{"compound": "O=Nc1c(O)c(Cl)cc2ccccc12", "group-label": "inactive"}
